- ASSAY DETAILS: NCI Yeast Anticancer Drug Screen. Data for the cln2 rad14 strain (AID 165);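 note: 0% = growth equal to vehicle treated cultures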
- SETTINGS: S. cerevisiae cln2 rad14 strain, hits give high values; at 50.0 µM unless noted
- Experimental: Growth inhibition of yeast strains with defined genetic alterations is measured as a screen for potential anti-cancer activity. Selected strains with alterations in DNA damage repair or cell cycle control were exposed to compounds and growth inhibition was measured relative to vehicle treated controls. The strain used in this assay is cln2 rad14
The panel holds about 79,000 compounds, 15% with a hit somewhere; the sample as a whole holds those more often. Where a SMILES comes first, the peptide text is derived from it. The star is where a group is joined. Cbz = O=C(OCc1ccccc1)*
READOUT LABEL: growth inhibition (%)
Numbers only, in %.

Below: 10 compounds and their reported growth inhibition.
CC(O)C1(O)CCCCC1 (stereo not given) ... -29.6
O=C1C=C(Nc2ccccc2)C(=O)C=C1Nc1ccccc1 ... -42.2
COc1cc(C(=O)NNC(=O)c2ccc(Cl)c(Cl)c2)cc(OC)c1OC ... 18.4
Cn1c2cccc3nnc4cccc(c4c32)n1C ... 4.2
COc1cc([N+](=O)[O-])c(S(=O)(=O)O)cc1NS(=O)(=O)c1ccc(C)cc1 ... 3.95
O=P(CSCCO)(c1ccccc1)c1ccccc1 ... -6.3
CC(C)OC(=O)Nc1cccc(Cl)c1F ... -0.75
CCOC(=O)CCC(NC(=O)C(Cc1ccccc1)NC(=O)OCc1ccccc1)C(=O)OCC (stereo not drawn) (Cbz-Phe-Glu(OEt)-OEt; configuration not given here) ... -6.25
CCCCOC(=O)CC(O)C(=O)OCCCC (stereo not given) ... -61.2
CN(C)C(=O)Sc1cccc([N+](=O)[O-])c1 ... -38.3

Answer for every listed entry: what is its growth inhibition? The entries follow.
1. CC1(C)C2CC(C(=O)O)C1C2 (stereo not given)
2. Cc1nc2c(N)n[nH]c(=O)n2n1
3. CC(=O)Oc1ccc(N2CC=C(c3ccccc3)CC2)cc1
4. COc1ccc(C=O)cc1OCc1ccccc1
5. COc1ccc(-c2oc3c(CC(=O)O)cccc3c(=O)c2OC)cc1
6. CCCCCCC(C)OB(OC(C)CCCCCC)OC(C)CCCCCC (stereo not given)

(A)
[3.8, -54, -8.35, -7.35, -14.4, 13.8]

====

Kindly supply the reported growth inhibition values for the records listed here.
- ASSAY DETAILS: NCI Yeast Anticancer Drug Screen. Data for the sgs1 mgt1 strain (AID 161);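 note: 0% = growth of cultures given vehicle only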
- SETTINGS: S. cerevisiae sgs1 mgt1 strain, hits give high values; at 50.0 µM unless noted
This is part of a sample that, as a whole, favours compounds with a hit. Of some 79,000 tested, about 15% had one in any assay. The source made the active and inactive calls. No stated cut-off is given here; in the data, active means growth inhibition above about 70%; inactive means the rest.

Below: 3 compounds and their reported growth inhibition.
CCOC(Cn1ccc[n+]1CC(=O)c1ccccc1)OCC ... -10.8% (inactive)
Cc1ccc(C(=O)c2ccc([N+](=O)[O-])cc2)cc1 ... -34.5% (inactive)
O=C(Nc1ccccc1)c1cc(S(=O)(=O)Nc2n[nH]c(=O)[nH]2)c(SSc2cc(Cl)c(C(=O)Nc3ccccc3)cc2S(=O)(=O)Nc2n[nH]c(=O)[nH]2)cc1Cl ... -8.5% (inactive)

In the following, a different compound is considered.
(Q) Fill in the blank: the reported growth inhibition of CCO[C@@H]1OC(=O)[C@H]2C(c3ccc(Cl)cc3)=NO[C@@H]12 is ____.
(A) 0.05% (inactive)
